Target: T1, human SIRPβ1 isoform 1 on cells (human, UniProt O00241 30-398)
T1 construct: On CHO cells (low level), on BWZ/BW5147.G.1.4 cells (reporter cells co-express human DAP12) or on primary human myeloid cells; also called huSIRPβ1; BWZ-huSIRPβ1
T1 sequence (O00241 30-398): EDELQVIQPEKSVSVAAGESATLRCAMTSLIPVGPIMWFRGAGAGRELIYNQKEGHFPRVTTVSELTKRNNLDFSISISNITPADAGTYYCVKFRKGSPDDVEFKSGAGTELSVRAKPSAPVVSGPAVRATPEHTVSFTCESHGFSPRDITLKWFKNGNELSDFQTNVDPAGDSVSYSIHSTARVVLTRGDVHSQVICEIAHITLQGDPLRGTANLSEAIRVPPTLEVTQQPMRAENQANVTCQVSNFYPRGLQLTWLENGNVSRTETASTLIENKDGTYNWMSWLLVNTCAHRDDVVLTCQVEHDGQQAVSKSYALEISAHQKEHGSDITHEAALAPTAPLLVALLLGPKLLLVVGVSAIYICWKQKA
Assay: flow cytometry;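 further: antibodies tested at 1 µg/ml for 30 min on ice against receptor-expressing cells, detected with a PE-labelled secondary antibody, read as mean fluorescence intensity relative to background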
value-kind: FOB
Remember to put the unit after the number in your answer.

**Q:** Any idea what its FOB is? The binder is SB-2 (antibody, V domains shown, IgG; also called SB-2 (p)) VH: QVQLVESGGGVVQPGRSLRLSCAASGFTFSSYGMNWVRQAPGKGLEWVAVIWYDGSNKYYADSVKGRFTISRDNSKNTLYLQMNSLRAEDTAVYYCARDQTAAAAIWGMDVWGQGTTVTVSS VL: EIVLTQSPGTLSLSPGERATLSCRASQSVSSSYLAWYQQKPGQAPRLLIYGASSRATGIPDRFSGSGSGTDFTLTISRLEPEDFAVYYCQQSSSHPFTFGGGTKVEIK
**A:** 8.7 fold over background
